# procedure_summary: Drug level in rat serum at 100 mg/kg, iv after 0.5 hr
# Type: ADME, organism-based
# Design: dose 100 mg/kg, route intravenous
# test_context: read-out: Drug uptake
assay_endpoint: concentration at 0.5 h (µg/mL)
Provide only the numeric value, understood in µg/mL.

Prompt line: Please report the measured concentration at 0.5 h for CN[C@H](CC(C)C)C(=O)N[C@H]1C(=O)N[C@@H](CC(N)=O)C(=O)N[C@H]2C(=O)N[C@H]3C(=O)N[C@H](C(=O)N[C@H](C(=O)O)c4cc(O)cc(O)c4-c4cc3ccc4O)[C@H](O)c3ccc(c(Cl)c3)Oc3cc2cc(c3O[C@@H]2O[C@H](CO)[C@@H](O)[C@H](O)[C@H]2O[C@H]2C[C@](C)(N)[C@H](O)[C@H](C)O2)Oc2ccc(cc2Cl)[C@H]1O
Response line: 180
